Source listed as patent US20090317363A1.

Molecular target: CCR5 (UniProt P51681)
Test: cell-based or functional assay
CCR5 sequestration (%) (% of control surface CCR5) strictly less than 20 = Y. Otherwise N.

Ask: Record RANTES derivative: signature sequence SEQ ID NO: 22 fused to positions 10-68 of native RANTES (SEQ ID NO: 1) (ligand) QGPPLMSFQSCCFAYIARPLPRAHIKEYFYTSGKCSNPAVVFVTRKNRQVCANPEKKWVREYINSLEMS : is its CCR5 sequestration (%) (% of control surface CCR5) strictly below 20?
Reply: Y

Ask: Does RANTES derivative: signature sequence SEQ ID NO: 13 fused to positions 10-68 of native RANTES (SEQ ID NO: 1) (ligand) QGPPLMWRGSCCFAYIARPLPRAHIKEYFYTSGKCSNPAVVFVTRKNRQVCANPEKKWVREYINSLEMS have CCR5 sequestration (%) (% of control surface CCR5) strictly under 20?
Reply: Y

Ask: Given RANTES derivative: signature sequence SEQ ID NO: 57 fused to positions 10-68 of native RANTES (SEQ ID NO: 1) (ligand) QGPPLMGLSVCCFAYIARPLPRAHIKEYFYTSGKCSNPAVVFVTRKNRQVCANPEKKWVREYINSLEMS , is recorded CCR5 sequestration (%) (% of control surface CCR5) strictly lower than 20?
Reply: Y

Ask: In the record for RANTES derivative: signature sequence SEQ ID NO: 12 fused to positions 10-68 of native RANTES (SEQ ID NO: 1) (ligand) QGPPLMWLGGCCFAYIARPLPRAHIKEYFYTSGKCSNPAVVFVTRKNRQVCANPEKKWVREYINSLEMS , is CCR5 sequestration (%) (% of control surface CCR5) less than 20?
Reply: Y

Ask: Please state whether CCR5 sequestration (%) (% of control surface CCR5) is below 20 for RANTES derivative: signature sequence SEQ ID NO: 28 fused to positions 10-68 of native RANTES (SEQ ID NO: 1) (ligand) QGPPGSWSSVCCFAYIARPLPRAHIKEYFYTSGKCSNPAVVFVTRKNRQVCANPEKKWVREYINSLEMS
Reply: N
